B1: C8orf76 (parent)
chain: LYLQLAICSSLQNLEKTIFCLQKL

variants of: B1; test: protein stability index of a GFP-peptide fusion (GPS, HEK-293T) (PSI 1-6); higher = more stable; settings: c terminus: a fixed tail appended;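 further: lentivirally expressed fusions sorted by FACS into six bins by GFP to DsRed ratio, PSI derived from sequencing read proportions per bin multiplied by bin number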
Hi, to clarify the labels: criterion met covers protein stability index from 3 upward, criterion not met covers anything below 3.

- F19N: criterion met
- L24I: criterion not met
- A6L: criterion not met
- Y2C: criterion not met
- Q12N: criterion not met
- L21A: criterion not met
- C8M: criterion met
- A6W: criterion not met
- Q22T: criterion met
- L11C: criterion not met
- C8V: criterion met
- K16N: criterion not met
- S10K: criterion not met
- A6H: criterion met
- S10H: criterion met
- L24D: criterion met
- L11D: criterion not met
- A6M: criterion met
- C20K: criterion not met
- C8H: criterion not met
- C8R: criterion met

Origin of measurements: the supplement of paper PMC10567573
